Data origin: paper PMC4899947

Biological target: UniProt Q14833
Sequence (Q14833 33-912): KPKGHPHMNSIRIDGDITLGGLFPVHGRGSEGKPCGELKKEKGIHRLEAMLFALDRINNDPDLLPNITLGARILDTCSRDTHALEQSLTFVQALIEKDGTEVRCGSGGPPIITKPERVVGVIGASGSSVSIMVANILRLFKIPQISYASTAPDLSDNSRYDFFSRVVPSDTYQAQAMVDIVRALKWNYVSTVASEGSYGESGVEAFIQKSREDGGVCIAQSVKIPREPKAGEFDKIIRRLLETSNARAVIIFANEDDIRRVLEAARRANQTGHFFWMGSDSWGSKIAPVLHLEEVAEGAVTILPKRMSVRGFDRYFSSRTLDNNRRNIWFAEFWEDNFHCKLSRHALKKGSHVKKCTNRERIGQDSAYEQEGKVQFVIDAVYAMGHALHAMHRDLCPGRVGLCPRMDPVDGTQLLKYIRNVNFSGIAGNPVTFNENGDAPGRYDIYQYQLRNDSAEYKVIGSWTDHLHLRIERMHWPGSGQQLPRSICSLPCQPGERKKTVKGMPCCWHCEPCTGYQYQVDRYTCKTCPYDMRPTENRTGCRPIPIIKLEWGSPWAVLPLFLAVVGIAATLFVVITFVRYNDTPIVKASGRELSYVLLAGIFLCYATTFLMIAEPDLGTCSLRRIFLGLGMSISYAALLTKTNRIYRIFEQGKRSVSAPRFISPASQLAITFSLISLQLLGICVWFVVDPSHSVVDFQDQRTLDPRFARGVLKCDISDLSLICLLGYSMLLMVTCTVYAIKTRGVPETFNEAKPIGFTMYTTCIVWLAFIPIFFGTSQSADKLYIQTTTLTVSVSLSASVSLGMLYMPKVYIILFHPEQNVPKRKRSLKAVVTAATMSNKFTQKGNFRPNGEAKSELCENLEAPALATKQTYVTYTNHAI
Experiment: Calcium mobilization mGlu4 PAM assay
Assay type: cell-based
measure.name: mGlu4 PAM activity (in words)

[[record]]
compound = "COc1ccc2c(c1)C(=O)N(c1ccc(NC(=O)c3ncccc3N)cc1Cl)C2 [Compound 17h]"
measure_name = "mGlu4 PAM activity (in words)"
value_measured = "good PAM activity"

[[record]]
compound = "Cc1cccc2c1C(=O)N(c1ccc(NC(=O)c3ncccc3N)cc1Cl)C2=O [Compound 17d]"
measure_name = "mGlu4 PAM activity (in words)"
value_measured = "good PAM activity"

[[record]]
compound = "Nc1cccnc1C(=O)Nc1ccc(N2C(=O)c3ccccc3C2=O)c(Cl)c1 [Compound 17a]"
measure_name = "mGlu4 PAM activity (in words)"
value_measured = "good PAM activity"

[[record]]
compound = "Nc1cccnc1C(=O)Nc1ccc(N2Cc3ccccc3C2=O)c(Cl)c1 [Compound 17e]"
measure_name = "mGlu4 PAM activity (in words)"
value_measured = "good PAM activity"

